# ASSAY_PROTOCOL: protein stability index of a GFP-peptide fusion (GPS, HEK-293T) (PSI 1-6); higher = more stable;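 also: 24-mer peptide tiles fused after GFP, lentivirally expressed, FACS-sorted into six equal bins by GFP/DsRed ratio, decoded by Illumina sequencing, PSI is the read-weighted mean bin number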
# CONDITIONS: treatment: MLN4924 1 uM, 8 h; c terminus: a fixed tail appended
Could you label it rule met if measured protein stability index is 4 or higher, and rule not met otherwise?

>>> class_label("PHFQPDASLLQPVTPLGTSRWRKI [NCF4]")
"rule not met"
>>> class_label("AVIYLKKTPEEAYRALLSGSNPPY [CDC14A]")
"rule not met"
>>> class_label("PNIAMTSGTVQPKQDAFANFANFS [CLINT1]")
"rule not met"
>>> class_label("EVVVAESELQKELKKVKTAHSNDG [DPCD]")
"rule met"
>>> class_label("ALVRTRMQAQASIEGAPEVTMSSL [SLC25A25]")
"rule not met"
>>> class_label("LSPVLESPRDLQFSEIRETSAKVN [TNXB]")
"rule met"
>>> class_label("ENIKGYYIIIVPLKKSRGKFIKPW [PTPRD]")
"rule not met"
>>> class_label("EKTQDDLMKHQTNISELKRTFLET [EPB41L3]")
"rule met"
>>> class_label("KIEDFREEMWTFRGKIHAFRGQIL [CCDC70]")
"rule not met"
>>> class_label("QHESGQSSSRGSSHCDSPSPQEDG [BNIP3L]")
"rule met"
>>> class_label("ESQKANQCAVLIYTSGTTGIPKGV [ACSBG2]")
"rule not met"
>>> class_label("KILHTAWHPAENIIAIAATNNLYI [PPP2R2C]")
"rule not met"

###

# ASSAY_PROTOCOL: protein stability index of a GFP-peptide fusion (GPS, HEK-293T) (PSI 1-6); higher = more stable
# CONDITIONS: treatment: DMSO; c terminus: a fixed tail appended
VALUE_TYPE: protein stability index

>>> val("SKCKIIHTDIKPENILMCVDDAYV [SRPK2]")
2.39
>>> val("EATNGREGLLRFSSWPFSIQDVVQ [AUP1]")
2.93
>>> val("MKSCKNLKGGLQEVAEQLELERIG [CNOT7]")
4.39
>>> val("GQESEVPYKREEEALEERRLSRGE [PKD2L1]")
5.39
>>> val("KHSVLLSASRKSAEQLRIELNAEK [WEE1]")
3.92
>>> val("IMATLGFGDSPKAEKRQIGDQEGP [FBF1]")
4.37
>>> val("DPSGVSGATVGRKSRRSRSESETS [C18orf25]")
5.69
>>> val("SAGNRTHKARTRPKARKQGVSPAD [ADAMTSL2]")
4.75
>>> val("QQQQLTFTAALEHCRENAHDKIRP [SPACA9]")
4.1
>>> val("LCDVVLVVGAKKIYAHRVILSACS [KLHL20]")
2.7
>>> val("YTGEIKISENLDYEETGFYEIEIQ [PCDHGA10]")
2.97
>>> val("PGRSRMISQEEFARQLQLSDPQTV [LPCAT4]")
4.44
>>> val("ADDAAAVAAKCPRLSECSSPPDYL [TRIB1]")
5.03

###

# ASSAY_PROTOCOL: protein stability index of a GFP-peptide fusion (GPS, HEK-293T) (PSI 1-6); higher = more stable
# CONDITIONS: treatment: DMSO; c terminus: a fixed tail appended
// label = Yes if protein stability index is not less than 3, otherwise No

>>> class_label("FGELMRKLWNPRNFKAHVSPHEML [USP39]")
"No"
>>> class_label("LSRTNEELLWKLQTGDPTSPIKLS [MTUS2]")
"Yes"
>>> class_label("RRGSWRLPYTDGLSWELLDSHLGG [CTBP1-DT]")
"No"
>>> class_label("YQELLGLSFEQMTDAHVWNKSVTL [NLN]")
"No"
>>> class_label("AQSRLEDPGQDLVPKQAIQVQEAD [DLX1]")
"Yes"
>>> class_label("ESQKANQCAVLIYTSGTTGIPKGV [ACSBG2]")
"No"
>>> class_label("PGVAYPAFLGPDEAFALPDSLLVV [SPSB4]")
"No"
>>> class_label("DIVFSKIKGKSCRTITFEQFQEAL [TPPP]")
"No"
>>> class_label("AAASPYIRTKLNYNPPKDDGSTYK [GAN]")
"Yes"
>>> class_label("SHLQWQESRLKRSNPLAREIFRRH [ZSCAN9]")
"Yes"
>>> class_label("DVNDNSPELTITSLFSPVTEDSPL [PCDHGA10]")
"Yes"
>>> class_label("DPGQQFTWEHSNLEVNKPKNRYAN [PTPRD]")
"Yes"
